- assay name: Cytotoxicity assay (CellTiter-Glo cell viability)
- condition set: dog, MDCK cells
measure: CC50 at 48 h (µM)
Write down the numeric answer in µM and omit the unit.

Task: Name the reported CC50 at 48 h value associated with the molecule CC1(C)[C@@H](O)CC[C@]2(C)[C@H]3C(=O)C=C4[C@@H]5C[C@@](C)(C(=O)O)CC[C@]5(C)CC[C@@]4(C)[C@]3(C)CC[C@@H]12
Output: 85

---

- assay name: Cytotoxicity assay (CellTiter-Glo cell viability)
- condition set: dog, MDCK cells (uninfected)
measure: viability at 48 h, 25 µM

Task: viability at 48 h, 25 µM for CC1(C)[C@@H](O)CC[C@]2(C)[C@H]3C(=O)C=C4[C@@H]5C[C@@](C)(C(=O)O)CC[C@]5(C)CC[C@@]4(C)[C@]3(C)CC[C@@H]12 ?
Output: 82.8%
